Recorded solubility at 2 h values for a group of compounds are listed next.
Experiment: Solubility testing of peptides at different pH
Assay type: physicochemical
Details: 50 mM HCl buffer; 50 mM HCl pH 1.2; target concentration 1 mg/ml; 2 hours agitation; read-out: Solubility Buffer pH 1.2
Starred links: 1 amine or outer side, 2 acyl side, 3 side chain; linkers in the order of their positions; H or OH if unused. Positions of bridges follow the written chain, without caps; N, C: chain ends. Non-standard residues stand in square brackets, D forms with d. Residues, ends and D or L forms follow the SMILES beside them. X3 = CN(CCCCC(=O)N[C@@H](CS[*:2])C(=O)[*:1])[*:3]; 2Nal = N[C@@H](Cc1ccc2ccccc2c1)C(=O)O; AEF = NCCOc1ccc(C[C@H](N)C(=O)O)cc1; αMeL = CC(C)C[C@](C)(N)C(=O)O; Aib = CC(C)(N)C(=O)O
Give the number; µg/mL is assumed, so skip it.

{"columns": ["COMPOUND", "solubility at 2 h, µg/mL"],
 "data": [
  ["CC(=O)N[C@H]1CCCCNC(=O)[C@@H]2CSSC[C@H](NC(=O)[C@H](CCC(N)=O)NC(=O)[C@H](Cc3c[nH]c4ccccc34)NC1=O)C(=O)N[C@@H](Cc1ccc(OCCN)cc1)C(=O)N[C@@H](Cc1ccc3ccccc3c1)C(=O)NC(C)(C)C(=O)N[C@H](C(=O)N[C@@H](CC(N)=O)C(=O)N[C@@H](CC(N)=O)C(N)=O)CCC(=O)N(C)CCCCC(=O)N2 [compound 12] (Ac-KWQC[AEF][2Nal][Aib]ENN-NH2; linker 1-4-8 via X3)", 310],
  ["CC(=O)N[C@H]1CCCCNC(=O)[C@@H]2CSSC[C@H](NC(=O)[C@H](CCC(N)=O)NC(=O)[C@H](Cc3c[nH]c4ccccc34)NC1=O)C(=O)N[C@@H](Cc1ccc(OCCN)cc1)C(=O)N[C@@H](Cc1ccc3ccccc3c1)C(=O)N[C@@](C)(CC(C)C)C(=O)N[C@H](C(=O)N[C@@H](CC(N)=O)C(=O)N[C@@H](CC(N)=O)C(N)=O)CCC(=O)N(C)CCCCC(=O)N2 [compound 14] (Ac-KWQC[AEF][2Nal][αMeL]ENN-NH2; linker 1-4-8 via X3)", 50]
]}

Moving on to the next compound.
Query: What value of solubility at 2 h has been recorded for this entry: COc1ccc(C[C@@H]2NC(=O)[C@@H]3CSSC[C@H](NC(=O)CCC(=O)NCCCC[C@@H](C(=O)N[C@@H](CC(N)=O)C(=O)N[C@@H](CC(N)=O)C(N)=O)NC(=O)C(C)(C)NC(=O)[C@H](Cc4ccc5ccccc5c4)NC2=O)C(=O)N[C@@H](CC(N)=O)C(=O)N[C@@H]([C@@H](C)O)C(=O)N[C@@H](Cc2c[nH]c4ccccc24)C(=O)N[C@@H](CCC(N)=O)C(=O)N3)cc1
Response: 120

====

Target: human interleukin-23 receptor (recombinant human IL-23R-Fc chimera) (Homo sapiens)
Construct: Fc (IgG Fc fusion)
Assay: Human ELISA IL23/IL23R (assay for specific human IL23R antagonists)
Type: binding
Settings: Table 10; read-out: Human ELISA IL23/IL23R IC50
Starred links: 1 amine or outer side, 2 acyl side, 3 side chain; linkers in the order of their positions; H or OH if unused. Positions of bridges follow the written chain, without caps; N, C: chain ends. Non-standard residues stand in square brackets, D forms with d. Residues, ends and D or L forms follow the SMILES beside them. *: point of attachment. X3 = CN(CCCCC(=O)N[C@@H](CS[*:2])C(=O)[*:1])[*:3]; Trp(7-Me) = Cc1cccc2c(C[C@H](N)C(=O)O)c[nH]c12; 2Nal = N[C@@H](Cc1ccc2ccccc2c1)C(=O)O; AEF = NCCOc1ccc(C[C@H](N)C(=O)O)cc1; Thp = NC1(C(=O)O)CCOCC1; Me2NCH2CH2 = CN(C)CC*; Aib = CC(C)(N)C(=O)O
REPORTED METRIC: IC50 (nM)
Give the number; nM is assumed, so skip it.

{"columns": ["COMPOUND", "IC50 [nM]"],
 "data": [
  ["CC(=O)NCCCC[C@@H]1NC(=O)[C@H](Cc2c[nH]c3c(C)cccc23)NC(=O)[C@@H](NC(C)=O)CCCCNC(=O)[C@@H]2CSSC[C@H](NC1=O)C(=O)N[C@@H](Cc1ccc(OCCN(C)C)cc1)C(=O)N[C@@H](Cc1ccc3ccccc3c1)C(=O)NC(C)(C)C(=O)N[C@H](C(=O)N[C@@H](CC(N)=O)C(=O)N[C@@H](Cc1c[nH]cn1)C(N)=O)CCC(=O)N(C)CCCCC(=O)N2 [compound 60] (Ac-K[Trp(7-Me)]K(Ac)CY(Me2NCH2CH2)[2Nal][Aib]ENH-NH2; linker 1-4-8 via X3)", 0.21]
]}

Moving on to the next compound.
Query: What value of IC50 has been recorded for this entry: CC(=O)N[C@H]1CCCCNC(=O)[C@@H]2CSSC[C@H](NC(=O)[C@H](CCC(N)=O)NC(=O)[C@H](Cc3c[nH]c4ccccc34)NC1=O)C(=O)N[C@@H](Cc1ccc(OCCN)cc1)C(=O)N[C@@H](Cc1ccc3ccccc3c1)C(=O)NC1(CCOCC1)C(=O)N[C@H](C(=O)N[C@@H](CC(N)=O)C(=O)N[C@@H](CC(N)=O)C(N)=O)CCC(=O)N(C)CCCCC(=O)N2 [compound 13] (Ac-KWQC[AEF][2Nal][Thp]ENN-NH2; linker 1-4-8 via X3)
Response: 0.61

====

Test: Solubility testing of peptides at different pH
Assay type: physicochemical
Conditions: 50 mM phosphate buffer pH 6.5; target concentration 1 mg/ml; 2 hours agitation; read-out: Solubility Buffer pH 6.5
Starred links: 1 amine or outer side, 2 acyl side, 3 side chain; linkers in the order of their positions; H or OH if unused. Positions of bridges follow the written chain, without caps; N, C: chain ends. Non-standard residues stand in square brackets, D forms with d. Residues, ends and D or L forms follow the SMILES beside them. X3 = CN(CCCCC(=O)N[C@@H](CS[*:2])C(=O)[*:1])[*:3]; 2Nal = N[C@@H](Cc1ccc2ccccc2c1)C(=O)O; AEF = NCCOc1ccc(C[C@H](N)C(=O)O)cc1; Thp = NC1(C(=O)O)CCOCC1; Aib = CC(C)(N)C(=O)O
Recorded solubility at 2 h values for a group of compounds are listed next.

Recorded solubility at 2 h, per entry:
{"columns": ["COMPOUND", "solubility at 2 h"],
 "data": [
  ["CC(=O)N[C@H]1CCCCNC(=O)[C@@H]2CSSC[C@H](NC(=O)[C@H](CCC(N)=O)NC(=O)[C@H](Cc3c[nH]c4ccccc34)NC1=O)C(=O)N[C@@H](Cc1ccc(OCCN)cc1)C(=O)N[C@@H](Cc1ccc3ccccc3c1)C(=O)NC1(CCOCC1)C(=O)N[C@H](C(=O)N[C@@H](CC(N)=O)C(=O)N[C@@H](CC(N)=O)C(N)=O)CCC(=O)N(C)CCCCC(=O)N2 [compound 13] (Ac-KWQC[AEF][2Nal][Thp]ENN-NH2; linker 1-4-8 via X3)", "≥ 1070 µg/mL"],
  ["CC(=O)N[C@H]1CCCCNC(=O)[C@@H]2CSSC[C@H](NC(=O)[C@H](CCC(N)=O)NC(=O)[C@H](Cc3c[nH]c4ccccc34)NC1=O)C(=O)N[C@@H](Cc1ccc(OCCN)cc1)C(=O)N[C@@H](Cc1ccc3ccccc3c1)C(=O)NC1(CCOCC1)C(=O)N[C@H](C(=O)N[C@@H](C)C(=O)NCC(N)=O)CCC(=O)N(C)CCCCC(=O)N2 [compound 17] (Ac-KWQC[AEF][2Nal][Thp]EAG-NH2; linker 1-4-8 via X3)", "≥ 1000 µg/mL"]
]}

Moving on to the next compound.
Query: What value of solubility at 2 h has been recorded for this entry: CC(=O)N[C@H]1CCCCNC(=O)[C@@H]2CSSC[C@H](NC(=O)[C@H](CCC(N)=O)NC(=O)[C@H](Cc3c[nH]c4ccccc34)NC1=O)C(=O)N[C@@H](Cc1ccc(OCCN)cc1)C(=O)N[C@@H](Cc1ccc3ccccc3c1)C(=O)NC(C)(C)C(=O)N[C@H](C(=O)N[C@@H](C)C(=O)N[C@H](CC(C)C)C(N)=O)CCC(=O)N(C)CCCCC(=O)N2 [compound 19] (Ac-KWQC[AEF][2Nal][Aib]EA[dL]-NH2; linker 1-4-8 via X3)
Response: 20 µg/mL

====

Experiment: Chemical stability assessment of peptides (relative purity loss)
Type: physicochemical
Settings: 50 mM phosphate buffer pH 6.5 + acetonitrile (1:1); 24 hours at 37° C.
Starred links: 1 amine or outer side, 2 acyl side, 3 side chain; linkers in the order of their positions; H or OH if unused. Positions of bridges follow the written chain, without caps; N, C: chain ends. Non-standard residues stand in square brackets, D forms with d. Residues, ends and D or L forms follow the SMILES beside them. *: point of attachment. X3 = CN(CCCCC(=O)N[C@@H](CS[*:2])C(=O)[*:1])[*:3]; Trp(7-Me) = Cc1cccc2c(C[C@H](N)C(=O)O)c[nH]c12; X1 = O=C(CCCCN[*:3])N[C@@H](CS[*:2])C(=O)[*:1]; 2Nal = N[C@@H](Cc1ccc2ccccc2c1)C(=O)O; AEF = NCCOc1ccc(C[C@H](N)C(=O)O)cc1; 3Pal = N[C@@H](Cc1cccnc1)C(=O)O; Thp = NC1(C(=O)O)CCOCC1; Me2NCH2CH2 = CN(C)CC*; Aib = CC(C)(N)C(=O)O; Ava = NCCCCC(=O)O
REPORTED METRIC: Chemical stability (relative purity loss) Buffer pH 6.5 (%)
Give the number; % is assumed, so skip it.

Recorded Chemical stability (relative purity loss) Buffer pH 6.5, per entry:
{"columns": ["COMPOUND", "MEASUREMENT UNIT", "RECORDED VALUE"],
 "data": [
  ["CC(=O)N[C@H]1CCCCNC(=O)[C@@H]2CSSC[C@H](NC(=O)[C@H](CCC(N)=O)NC(=O)[C@H](Cc3c[nH]c4ccccc34)NC1=O)C(=O)N[C@@H](Cc1ccc(OCCN(C)C)cc1)C(=O)N[C@@H](Cc1ccc3ccccc3c1)C(=O)NC1(CCOCC1)C(=O)N[C@H](C(=O)N[C@@H](C)C(=O)N[C@H](CC(C)C)C(N)=O)CCC(=O)NCCCCC(=O)N2 [compound 33] (Ac-KWQCY(Me2NCH2CH2)[2Nal][Thp]EA[dL]-NH2; linker 1-4-8 via X1)", "%", 0.5],
  ["COc1ccc(C[C@@H]2NC(=O)[C@@H]3CSSC[C@H](NC(=O)[C@@H](NC(C)=O)CCCCNC(=O)C[C@@H](C(=O)N[C@@H](CC(N)=O)C(=O)N[C@@H](CC(N)=O)C(N)=O)NC(=O)C(C)(C)NC(=O)[C@H](Cc4ccc5ccccc5c4)NC2=O)C(=O)N[C@@H](CC(N)=O)C(=O)N[C@@H]([C@@H](C)O)C(=O)N[C@@H](Cc2c[nH]c4ccccc24)C(=O)N[C@@H](CCC(N)=O)C(=O)N3)cc1 [compound 7] (Ac-KCNTWQCY(Me)[2Nal][Aib]DNN-NH2; lactam 1-11; disulfide 2-7)", "%", 1.3],
  ["CC(=O)NCCCC[C@@H]1NC(=O)[C@H](Cc2c[nH]c3c(C)cccc23)NC(=O)[C@H]([C@@H](C)O)NC(=O)[C@H](CC(N)=O)NC(=O)[C@@H]2CSSC[C@H](NC1=O)C(=O)N[C@@H](Cc1ccc(OCCN(C)C)cc1)C(=O)N[C@@H](Cc1ccc3ccccc3c1)C(=O)NC1(CCOCC1)C(=O)N[C@H](C(=O)N[C@@H](CC(N)=O)C(=O)N[C@@H](Cc1cccnc1)C(N)=O)CCC(=O)NCCCCC(=O)N2 [compound 51] ([Ava]CNT[Trp(7-Me)]K(Ac)CY(Me2NCH2CH2)[2Nal][Thp]EN[3Pal]-NH2; disulfide 2-7; lactam N-11)", "%", 0.2]
]}

Query: What value of Chemical stability (relative purity loss) Buffer pH 6.5 has been recorded for this entry: COc1ccc(C[C@@H]2NC(=O)[C@@H]3CSSC[C@H](NC(=O)CCCCNC(=O)CC[C@@H](C(=O)N[C@@H](CC(N)=O)C(=O)NCC(N)=O)NC(=O)C(C)(C)NC(=O)[C@H](Cc4ccc5ccccc5c4)NC2=O)C(=O)N[C@@H](CC(N)=O)C(=O)N[C@@H]([C@@H](C)O)C(=O)N[C@@H](Cc2c[nH]c4ccccc24)C(=O)N[C@@H](CCC(N)=O)C(=O)N3)cc1 [compound 4] ([Ava]CNTWQCY(Me)[2Nal][Aib]ENG-NH2; disulfide 2-7; lactam N-11)
Response: 0.7

Query: What value of Chemical stability (relative purity loss) Buffer pH 6.5 has been recorded for this entry: CC(=O)N[C@H]1CCCCNC(=O)[C@@H]2CSSC[C@H](NC(=O)[C@H](CCC(N)=O)NC(=O)[C@H](Cc3c[nH]c4ccccc34)NC1=O)C(=O)N[C@@H](Cc1ccc(OCCN)cc1)C(=O)N[C@@H](Cc1ccc3ccccc3c1)C(=O)NC1(CCOCC1)C(=O)N[C@H](C(=O)N[C@@H](C)C(=O)N[C@H](CC(C)C)C(N)=O)CCC(=O)N(C)CCCCC(=O)N2 [compound 34] (Ac-KWQC[AEF][2Nal][Thp]EA[dL]-NH2; linker 1-4-8 via X3)
Response: 0.0
